Task for the reader: assign each of the following molecules its reported z-score.
# assay-notes: PSAC antagonists in infected red cells, primary screen, cell-based, P. falciparum Indochina, OD700, 18 h (AID 1157)
# condition-parameters: P. falciparum Indochina infected erythrocytes, osmotic lysis OD700, 18 h; higher = more signal, called active from +8 up or from −8 down
Field format: numeric only.

// sample CC(C)c1ccc(NN2C(C(O)c3ccc(B(O)O)cc3)C=CC3C(=O)N(c4ccccc4)C(=O)C32)cc1 (centres undefined) , its z-score was 1.27

// sample COc1ccc([Si](C)(C)[C@@H]2[C@@H](CCO)O[C@]3(C(=O)N(Cc4ccc(N(C=O)c5ccccc5)cc4)c4ccccc43)[C@H]2C)cc1 , its z-score was 1.7

// sample C=C(CCCC)C(=O)CC[C@@H](OC(=O)c1ccccc1-c1ccccc1C(=O)O)c1ccc(OCCO)cc1 , its z-score was 0.602

// sample CC(=O)NCCCC[C@@H]1NC(=O)[C@@H]2C[C@H](C(=O)NCCCCCNC(=O)CS)[C@H](c3cccc(OCCO)c3)N2C1=O , its z-score was -1.85
